# protocol: qHTS RealTime-Glo MT Cell Viability Assay in HEK293 cells - 16 hour (AID 1224872); also: nearly all actives have a fitted effect of over 50% in size
# condition_parameters: RealTime-Glo luminescence; series mostly up to 76.8 µM
Results filed as inconclusive are left out. Calls of active or inactive are those of the source. Calls follow the shape of the dose curve; as a rule, active = well fitted cell-killing curve with a large enough effect in the repeat runs; inconclusive = weak or mixed curves, or effect the other way; inactive = flat fitted curve, though single readings scatter.
Outcomes: true (1) (active), false (0) (inactive)

1. CCOC(=O)c1ccc(N)cc1 ... false (0)
2. c1ccc(Oc2ccccc2)cc1 ... false (0)
3. CC(=O)Oc1ccc(C)cc1 ... false (0)
4. Cc1ccc2ncccc2c1 ... false (0)
5. CC(=O)CCC=C(C)C ... false (0)
6. COCCCN ... false (0)
7. C=CC[N+](C)(C)CC=C ... false (0)
8. CN/C(=C\[N+](=O)[O-])NCCSCc1csc(CN(C)C)n1 ... false (0)
9. COc1cc(OC)c(C(=O)CCCN2CCCC2)c(OC)c1 ... false (0)
10. CCCCC(C=O)CC (configuration not stated) ... false (0)
11. C=CCCCCCCCCC(=O)O ... false (0)
12. COc1ccccc1OCC(O)CO (configuration not stated) ... false (0)
13. OCc1cccc(Oc2ccccc2)c1 ... false (0)
14. Nc1nc(N)nc(-c2ccccc2)n1 ... false (0)
15. CCNc1ccccc1 ... false (0)
16. N#Cc1ccccc1 ... false (0)
17. CC1(C)NC(=O)NC1=O ... false (0)
18. CSc1ccc(Cl)cc1 ... false (0)
19. O=c1[nH]cnc2[nH]ncc12 ... false (0)
20. CC(=O)c1ccc(O)cc1 ... false (0)
21. NCCCCCCN ... false (0)
22. CCO[Si](CCC#N)(OCC)OCC ... false (0)
23. COCCOC(=O)c1ccccc1C(=O)OCCOC ... false (0)
24. Cc1ccc(S(=O)(=O)N=C=O)cc1 ... false (0)
25. CC(=O)OCc1ccco1 ... false (0)
26. CC(=O)CC(C)(C)O ... false (0)
27. CCCCCCCCCCCCCCCC(=O)OC(C)C ... false (0)
28. COc1ccc(OC)cc1 ... false (0)
29. C=CC(=O)OCCC(=O)O ... false (0)
30. O=[N+]([O-])c1ccc2nc[nH]c2c1 ... false (0)
31. CC1(C)OC[C@@H]2O[C@@]3(C(=O)O)OC(C)(C)O[C@H]3[C@@H]2O1 ... false (0)
32. CCOC(=O)n1ccn(C)c1=S ... false (0)
33. COc1ccc([N+](=O)[O-])cc1N ... false (0)
34. CCO[Si](CCCN)(OCC)OCC ... false (0)
35. CC(O)CC(C)(C)O (configuration not stated) ... false (0)
36. O=C(O)/C=C/C(=O)O ... false (0)
37. O=C1c2ccccc2CCc2ccccc21 ... false (0)
38. CC(C)CC(=O)CC(C)CC(C)C (configuration not stated) ... false (0)
39. C=C(C)CNCC ... false (0)
40. CCCCCCCO ... false (0)
41. CCCCCCCCCCCC(=O)OC ... false (0)
42. CCCCCC(=O)O ... false (0)
43. CN(C)c1ccc(Cc2ccc(N(C)C)cc2)cc1 ... true (1)
44. OCc1ccccc1 ... false (0)
45. CC(C)(C)c1cc(Cc2cc(C(C)(C)C)c(O)c(C(C)(C)C)c2)cc(C(C)(C)C)c1O ... false (0)
46. CCNC(=S)NCC ... false (0)
47. O=C(OCC1CCC2OC2C1)C1CCC2OC2C1 (configuration not stated) ... false (0)
48. CCCCCCCCCCCCCCCCO ... false (0)
49. CCNc1cccc(C)c1 ... false (0)
50. COc1ccc(CCC(C)=O)cc1 ... false (0)
51. COC(=O)c1cccnc1 ... false (0)
52. COc1ccc(C)cc1N ... false (0)
53. O=C1CCCC1 ... false (0)
54. C[C@]12CC[C@@H]3c4ccc(O)cc4CC[C@H]3[C@@H]1C[C@@H](O)[C@@H]2O ... false (0)
55. CC1(C)CC(N)CC(C)(CN)C1 (configuration not stated) ... false (0)
56. CCCCCCC=O ... false (0)
57. NCCNCCN ... false (0)

###

# target_desc: Cytochrome P450 2C9 (Homo sapiens) (UniProt P11712)
# Sequence (P11712 whole entry, looked up): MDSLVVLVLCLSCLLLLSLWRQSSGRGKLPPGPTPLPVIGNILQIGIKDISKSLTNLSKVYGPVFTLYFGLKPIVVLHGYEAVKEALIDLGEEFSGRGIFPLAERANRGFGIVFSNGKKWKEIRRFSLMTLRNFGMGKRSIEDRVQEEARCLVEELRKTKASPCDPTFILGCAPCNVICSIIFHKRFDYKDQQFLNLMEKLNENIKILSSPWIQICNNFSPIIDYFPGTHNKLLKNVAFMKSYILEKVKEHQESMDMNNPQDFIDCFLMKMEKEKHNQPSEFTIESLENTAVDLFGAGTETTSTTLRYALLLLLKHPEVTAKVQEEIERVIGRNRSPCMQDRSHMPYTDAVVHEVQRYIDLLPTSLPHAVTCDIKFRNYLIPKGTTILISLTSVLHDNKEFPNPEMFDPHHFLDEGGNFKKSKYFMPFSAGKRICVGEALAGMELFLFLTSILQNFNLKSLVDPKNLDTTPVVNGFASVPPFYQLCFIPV
# protocol: Cytochrome P450 Family 2 Subfamily C Member 9 (CYP2C9) small molecule antagonists: luciferase reporter qHTS assay (AID 1671198); also: nearly all actives have a fitted effect of over 50% in size; also: potency is read from the fitted curve at half-maximal effect
# condition_parameters: P450-Glo CYP2C9 enzyme assay, luciferin luminescence; series mostly up to 115 µM
Inconclusive results are not listed. Active and inactive are the calls of the source. Calls follow the shape of the dose curve; as a rule, active = well fitted inhibition curve with a large enough effect in the repeat runs; inconclusive = weak or mixed curves; inactive = no such curve, though single readings can be large or run the other way.
test_readout: Potency

1. CC(C)CC(=O)CC(C)CC(C)C (stereo unspecified) ... inactive
2. CC(=O)OC1CC(C)OC(C)O1 (stereo unspecified) ... inactive
3. NCCNCCN ... inactive
4. CC(O)CC(C)(C)O (stereo unspecified) ... inactive
5. CCCCCCCCCCO ... inactive
6. CN1C(=O)CC[C@H]1c1cccnc1 ... inactive
7. CC(=O)OCc1ccco1 ... inactive
8. CCc1ccccc1CC ... inactive
9. COc1ccc(CCC(C)=O)cc1 ... inactive
10. CCO[Si](CCCN)(OCC)OCC ... inactive
11. C=C(C)[C@H]1CC=C(C)C(=O)C1 ... inactive
12. CCCCC(C=O)CC (stereo unspecified) ... inactive
13. O=C(O)CCCCCCCCC(=O)O ... inactive
14. CC(C)(C)c1cc(Cc2cc(C(C)(C)C)c(O)c(C(C)(C)C)c2)cc(C(C)(C)C)c1O ... inactive
15. Cc1ccc([N+](=O)[O-])cc1S(=O)(=O)O ... 56.4 µM (active)
16. C=Cc1ccc(C)cc1 ... inactive

###

# target_desc: Vitamin D3 receptor (Homo sapiens) (UniProt P11473)
# Sequence (P11473 whole entry, looked up): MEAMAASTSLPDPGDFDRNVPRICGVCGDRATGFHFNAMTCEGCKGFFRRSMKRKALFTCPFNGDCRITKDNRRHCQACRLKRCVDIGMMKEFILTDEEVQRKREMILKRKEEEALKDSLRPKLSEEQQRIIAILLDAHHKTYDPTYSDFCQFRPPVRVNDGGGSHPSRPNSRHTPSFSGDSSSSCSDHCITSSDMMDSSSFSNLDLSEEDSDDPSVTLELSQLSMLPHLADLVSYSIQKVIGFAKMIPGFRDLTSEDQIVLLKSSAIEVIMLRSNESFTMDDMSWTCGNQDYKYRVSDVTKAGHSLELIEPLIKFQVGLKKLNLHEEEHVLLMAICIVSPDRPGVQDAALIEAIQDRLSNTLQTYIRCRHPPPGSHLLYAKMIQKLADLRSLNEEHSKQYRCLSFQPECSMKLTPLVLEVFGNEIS
# protocol: qHTS assay to identify small molecule agonists of the vitamin D receptor (VDR) signaling pathway (AID 743222)
# condition_parameters: HEK293T VDR-UAS-bla, beta-lactamase FRET ratio, 16 h; series mostly up to 63.5 µM
Inconclusive results are not listed. Calls of active or inactive are those of the source. Calls come from the whole dose curve.
test_readout: outcome

1) CC1(C)S[C@@H]2[C@H](NC(=O)COc3ccccc3)C(=O)N2[C@H]1C(=O)O ... inactive
2) C=C(C)CNCC ... inactive
3) CN(C)c1ccc(O)c2c1C[C@H]1C[C@H]3[C@H](N(C)C)C(=O)C(C(N)=O)=C(O)[C@@]3(O)C(=O)C1=C2O ... inactive
4) CC(C)OP(=O)(CP(=O)(OC(C)C)OC(C)C)OC(C)C ... inactive
5) CCOC(=O)c1ccc(N)cc1 ... inactive
6) C=CCc1ccc(OC)c(OC)c1 ... inactive
7) Brc1ccc(Br)c(Br)c1 ... inactive
8) CCCCCCCCCCCC(=O)OC ... inactive
9) O=S(=O)(O)c1ccccc1 ... inactive
10) CCNc1ccccc1 ... inactive
11) Clc1ccccn1 ... inactive
12) COc1cc(OC)c(C(=O)CCCN2CCCC2)c(OC)c1 ... inactive
13) C=CC(=O)OCCC(=O)O ... inactive
14) CC(=O)c1ccc(O)cc1 ... inactive
15) CCCCCC(=O)O ... inactive
16) NCCN1CCNCC1 ... inactive
17) CC(C)c1cccc(C(C)C)c1 ... inactive
18) CCNC(=S)NCC ... inactive
19) CCOCCOCCOCCO ... inactive
20) CCO[Si](CCCN)(OCC)OCC ... inactive
21) CCCCCCCO ... inactive
22) C=C(C)C(=O)OCC(C)C ... inactive
23) CN(C)CCOC(=O)COc1ccc(Cl)cc1 ... inactive
24) CC(C)CCCCCCCOC(=O)CCCCC(=O)OCCCCCCCC(C)C ... inactive
25) NCCCCCCN ... inactive
26) C[Si]1(C)O[Si](C)(C)O[Si](C)(C)O[Si](C)(C)O1 ... inactive
27) CC(=O)OCc1ccccc1 ... inactive
28) CCCCCCCC=O ... inactive
29) COc1ccccc1OCC(O)CO (configuration not stated) ... inactive
30) CC(C)CC(C)O (configuration not stated) ... inactive
31) O=c1[nH]cnc2[nH]ncc12 ... inactive
32) COC(=O)c1cccnc1 ... inactive
33) CCNc1cccc(C)c1 ... inactive
34) COc1ccc(N)c(C)c1 ... inactive
35) CC(C)(C)c1cc(Cc2cc(C(C)(C)C)c(O)c(C(C)(C)C)c2)cc(C(C)(C)C)c1O ... inactive
36) COc1ccc(C)cc1N ... inactive
37) CC(=O)CC(C)(C)O ... inactive
38) CCCCCCCCCCCCCCCCO ... inactive
39) CSc1ccc(Cl)cc1 ... inactive
40) CC(O)CC(C)(C)O (configuration not stated) ... inactive
41) CN(C)c1ccc(Cc2ccc(N(C)C)cc2)cc1 ... inactive
42) CCCCCCCCCCCCCCCC(=O)OC(C)C ... inactive
